// data source = paper PMC8879095

# assay-remarks: Antibiotic concentrations in porcine oral fluid after intramuscular application (UHPLC-MS/MS)
# Type: in vivo
# condition-info: male, (Landrace × Yorkshire) × Duroc crossbred (DanBred sows), pig, intramuscular; oral fluid, pigs, i.m., time 6 d, posttreatment; read-out: Avarage Concentrations in oral fluid
reported-metric: log10 concentration at 6 d (log10 of the value in ng/mL)
Each number you see is log10 of concentration at 6 d, and the unit inside the log is ng/mL.

Sample CC[C@H]1OC(=O)C[C@@H](O)[C@H](C)[C@@H](O[C@@H]2O[C@H](C)[C@@H](O[C@H]3C[C@@](C)(O)[C@@H](O)[C@H](C)O3)[C@H](N(C)C)[C@H]2O)[C@@H](CC=O)C[C@@H](C)C(=O)/C=C/C(C)=C/[C@@H]1CO[C@@H]1O[C@H](C)[C@@H](O)[C@@H](OC)[C@H]1OC [TYL, tylosin] — what was its log10 concentration at 6 d?
2.68

Same again, this time with COc1cc(Cc2cnc(N)nc2N)cc(OC)c1OC [TRMP, trimethoprim]
3.11

Please do the same for C=C[C@]1(C)C[C@@H](OC(=O)CSCCN(CC)CC)[C@]2(C)[C@H](C)CC[C@]3(CCC(=O)[C@H]32)[C@@H](C)[C@@H]1O [TIAM, tiamulin] as well.
3.47

What about this compound? CCC[C@@H]1C[C@@H](C(=O)N[C@@H]([C@H]2O[C@H](SC)[C@H](O)[C@@H](O)[C@H]2O)[C@@H](C)O)N(C)C1 [LIN, lincomycin]
3.25

Now this one: CC1(C)S[C@@H]2[C@H](NC(=O)Cc3ccccc3)C(=O)N2[C@H]1C(=O)O [PEN G, penicillin G]
1.72

COc1ncnc(NS(=O)(=O)c2ccc(N)cc2)c1OC [SDX, sulfadoxine] ?
3.61

###

# assay-remarks: Antibiotic concentrations in porcine oral fluid after intramuscular application (UHPLC-MS/MS)
# Format: in vivo
# condition-info: male, (Landrace × Yorkshire) × Duroc crossbred (DanBred sows), pig, intramuscular; oral fluid, pigs, i.m., time 29 d, posttreatment; read-out: Avarage Concentrations in oral fluid
reported-metric: concentration at 29 d
In your response, the unit should come after the numeric value.

What value of concentration at 29 d has been reported for the following compound? C=C[C@]1(C)C[C@@H](OC(=O)CSCCN(CC)CC)[C@]2(C)[C@H](C)CC[C@]3(CCC(=O)[C@H]32)[C@@H](C)[C@@H]1O
40.6 ng/mL

Would you kindly repeat that for CCC[C@@H]1C[C@@H](C(=O)N[C@@H]([C@H]2O[C@H](SC)[C@H](O)[C@@H](O)[C@H]2O)[C@@H](C)O)N(C)C1 ?
85.6 ng/mL

Another: COc1cc(Cc2cnc(N)nc2N)cc(OC)c1OC
21.2 ng/mL

Another: COc1ncnc(NS(=O)(=O)c2ccc(N)cc2)c1OC
30.4 ng/mL

###

# assay-remarks: Antibiotic concentrations in porcine oral fluid after intramuscular application (UHPLC-MS/MS)
# Type: in vivo
# condition-info: male, (Landrace × Yorkshire) × Duroc crossbred (DanBred sows), pig, intramuscular; oral fluid, pigs, i.m., time 13 d, posttreatment; read-out: Avarage Concentrations in oral fluid
Provide the reported concentration at 13 d of each item.
Entry format: amount then unit.

Entry under review: COc1cc(Cc2cnc(N)nc2N)cc(OC)c1OC [TRMP, trimethoprim] . Reported concentration at 13 d?
22 ng/mL

Try C=C[C@]1(C)C[C@@H](OC(=O)CSCCN(CC)CC)[C@]2(C)[C@H](C)CC[C@]3(CCC(=O)[C@H]32)[C@@H](C)[C@@H]1O [TIAM, tiamulin] next.
138 ng/mL

And what about the compound CC[C@H]1OC(=O)C[C@@H](O)[C@H](C)[C@@H](O[C@@H]2O[C@H](C)[C@@H](O[C@H]3C[C@@](C)(O)[C@@H](O)[C@H](C)O3)[C@H](N(C)C)[C@H]2O)[C@@H](CC=O)C[C@@H](C)C(=O)/C=C/C(C)=C/[C@@H]1CO[C@@H]1O[C@H](C)[C@@H](O)[C@@H](OC)[C@H]1OC [TYL, tylosin] ?
32.3 ng/mL

Request: COc1ncnc(NS(=O)(=O)c2ccc(N)cc2)c1OC [SDX, sulfadoxine]
68 ng/mL

Then what about the compound CCC[C@@H]1C[C@@H](C(=O)N[C@@H]([C@H]2O[C@H](SC)[C@H](O)[C@@H](O)[C@H]2O)[C@@H](C)O)N(C)C1 [LIN, lincomycin] ?
131 ng/mL

###

# assay-remarks: Antibiotic concentrations in porcine oral fluid after intramuscular application (UHPLC-MS/MS)
# Format: in vivo
# condition-info: male, (Landrace × Yorkshire) × Duroc crossbred (DanBred sows), pig, intramuscular; oral fluid, pigs, i.m., first day of medication (abstract); read-out: concentration in oral fluid on the first day of medication
reported-metric: concentration at 1 d (ng/g)
Entry rule: numbers only, all in ng/g.

concentration at 1 d lookup needed for COc1cc(Cc2cnc(N)nc2N)cc(OC)c1OC , thanks.
14100

Lookup C=C[C@]1(C)C[C@@H](OC(=O)CSCCN(CC)CC)[C@]2(C)[C@H](C)CC[C@]3(CCC(=O)[C@H]32)[C@@H](C)[C@@H]1O
7600

Another molecule: COc1ncnc(NS(=O)(=O)c2ccc(N)cc2)c1OC
22300

// next record CCC[C@@H]1C[C@@H](C(=O)N[C@@H]([C@H]2O[C@H](SC)[C@H](O)[C@@H](O)[C@H]2O)[C@@H](C)O)N(C)C1
10500

###

# assay-remarks: Antibiotic concentrations in porcine oral fluid after intramuscular application (UHPLC-MS/MS)
# Assay type: in vivo
# condition-info: male, (Landrace × Yorkshire) × Duroc crossbred (DanBred sows), pig, intramuscular; oral fluid, pigs, i.m., time 17 d, posttreatment; read-out: Avarage Concentrations in oral fluid
reported-metric: concentration at 17 d (ng/mL)
Give the value, in units of ng/mL, as a plain number.

Give its concentration at 17 d value. Item: COc1ncnc(NS(=O)(=O)c2ccc(N)cc2)c1OC
47

Now this one: CCC[C@@H]1C[C@@H](C(=O)N[C@@H]([C@H]2O[C@H](SC)[C@H](O)[C@@H](O)[C@H]2O)[C@@H](C)O)N(C)C1
128

And the next one, CC[C@H]1OC(=O)C[C@@H](O)[C@H](C)[C@@H](O[C@@H]2O[C@H](C)[C@@H](O[C@H]3C[C@@](C)(O)[C@@H](O)[C@H](C)O3)[C@H](N(C)C)[C@H]2O)[C@@H](CC=O)C[C@@H](C)C(=O)/C=C/C(C)=C/[C@@H]1CO[C@@H]1O[C@H](C)[C@@H](O)[C@@H](OC)[C@H]1OC ?
31.9

Please give the result for COc1cc(Cc2cnc(N)nc2N)cc(OC)c1OC too.
18.9

Try this molecule next: C=C[C@]1(C)C[C@@H](OC(=O)CSCCN(CC)CC)[C@]2(C)[C@H](C)CC[C@]3(CCC(=O)[C@H]32)[C@@H](C)[C@@H]1O
182

###

# assay-remarks: Antibiotic concentrations in porcine oral fluid after intramuscular application (UHPLC-MS/MS)
# Assay type: in vivo
# condition-info: male, (Landrace × Yorkshire) × Duroc crossbred (DanBred sows), pig, intramuscular; oral fluid, pigs, i.m., time 18 d, posttreatment; read-out: Avarage Concentrations in oral fluid
# concentration at 18 d >= 40 ng/mL gives Fulfilled, anything below gives Not fulfilled

Dear colleague, could you confirm whether COc1cc(Cc2cnc(N)nc2N)cc(OC)c1OC has concentration at 18 d at or above 40 ng/mL?
Not fulfilled

Request: CCC[C@@H]1C[C@@H](C(=O)N[C@@H]([C@H]2O[C@H](SC)[C@H](O)[C@@H](O)[C@H]2O)[C@@H](C)O)N(C)C1
Fulfilled

Next molecule up: CC[C@H]1OC(=O)C[C@@H](O)[C@H](C)[C@@H](O[C@@H]2O[C@H](C)[C@@H](O[C@H]3C[C@@](C)(O)[C@@H](O)[C@H](C)O3)[C@H](N(C)C)[C@H]2O)[C@@H](CC=O)C[C@@H](C)C(=O)/C=C/C(C)=C/[C@@H]1CO[C@@H]1O[C@H](C)[C@@H](O)[C@@H](OC)[C@H]1OC
Not fulfilled

C=C[C@]1(C)C[C@@H](OC(=O)CSCCN(CC)CC)[C@]2(C)[C@H](C)CC[C@]3(CCC(=O)[C@H]32)[C@@H](C)[C@@H]1O , same question.
Fulfilled

Check COc1ncnc(NS(=O)(=O)c2ccc(N)cc2)c1OC too.
Fulfilled

###

# assay-remarks: Antibiotic concentrations in porcine oral fluid after intramuscular application (UHPLC-MS/MS)
# Assay type: in vivo
# condition-info: oral fluid, pigs, i.m., time 30 d, posttreatment
reported-metric: Avarage Concentrations in oral fluid (µg/L)
Your answer should be a plain number; it is taken to be in µg/L.

Which measured Avarage Concentrations in oral fluid value corresponds to COc1ncnc(NS(=O)(=O)c2ccc(N)cc2)c1OC ?
23.0

And what about the compound COc1cc(Cc2cnc(N)nc2N)cc(OC)c1OC ?
22.4

Likewise for C=C[C@]1(C)C[C@@H](OC(=O)CSCCN(CC)CC)[C@]2(C)[C@H](C)CC[C@]3(CCC(=O)[C@H]32)[C@@H](C)[C@@H]1O ?
46.9

Try CCC[C@@H]1C[C@@H](C(=O)N[C@@H]([C@H]2O[C@H](SC)[C@H](O)[C@@H](O)[C@H]2O)[C@@H](C)O)N(C)C1 next.
58.1
